Where do these numbers come from? They come from patent US6399610B1.

- procedureDetails: Bioavailability of levosimendan following buccal and intravenous administration in dogs (plasma concentration)
- Assay type: in vivo, beagle dogs
- runConditions: beagle, dog, plasma, iv, 0.02 mg/kg, dog plasma, iv 0.02 mg/kg, 60 min, Dog 1
readoutKind: concentration at 60 min (ng/mL)
# output: bare number, implied unit ng/mL

Which concentration at 60 min value is on record for CC1CC(=O)NN=C1c1ccc(NN=C(C#N)C#N)cc1 (single isomer, unassigned; (-)) ?
58

====

- procedureDetails: Bioavailability of levosimendan following buccal and intravenous administration in dogs (plasma concentration)
- Format: in vivo, beagle dogs
- runConditions: beagle, dog, plasma, iv, 0.02 mg/kg, dog plasma, iv 0.02 mg/kg, 90 min, Dog 1
- Protocol: Bioavailability of levosimendan was studied in dogs following buccal and intravenous administration of 0.02 mg/kg of the compound. As experimental animals, three beagle dogs were used. At the time of dosing all animals weighed approximately 10 kg. […] 5 ml of blood was collected from the cephalic vein at the following times after administration: 0, 10, 20, 40, min, 1, 1.5 and 2 hours. Plasma was separated and stored frozen in −20 ° C. until analyzed. […]
readoutKind: concentration at 90 min

I have this molecule here, CC1CC(=O)NN=C1c1ccc(NN=C(C#N)C#N)cc1 (single isomer, unassigned; (-)) [Levosimendan] , and I need its recorded concentration at 90 min.
39 ng/mL
